Tested on: P388 leukemia ip, CD2F1 mice, survival T/C
Test: NCI In Vivo Anticancer Drug Screen. Data for tumor model P388 Leukemia (intraperitoneal) in CD2F1 (CDF1) mice
Conditions: endpoint: median survival time; dose: 200.0 mg/kg/injection; schedule: Q01DX009 (ip); vehicle: saline with Tween-80; higher = longer survival
Inconclusive results and toxic doses are left out.
Listed here: items and their measured T/C.

Reference set (8 entries):
Name the recorded T/C for Cc1ccc(S(=O)(=O)NC(=O)N(C)NC(=O)C(=O)NCc2ccco2)cc1 .
99 % of control

Name the recorded T/C for CCCCCCCCCCCCCCCCN1CCC2SC3CN(CCCCCCCCCCCCCCCC)CCC3SC2C1 (centres undefined) .
97 % of control

Name the recorded T/C for CN(NC(=O)C(=O)NCc1ccco1)C(=O)Nc1ccc(Cl)cc1 .
92 % of control

Name the recorded T/C for CCCCCCCc1c(C)[nH]c2cc(OC)ccc2c1=O .
94 % of control

Name the recorded T/C for CCCCN1C(=O)/C(=C/c2ccc(OC)cc2)SC1=S .
90 % of control

Name the recorded T/C for CC[As](CC)SC1OC(COC(C)=O)C(OC(C)=O)C(OC(C)=O)C1OC(C)=O (centres undefined) .
96 % of control

Name the recorded T/C for O=c1n(CC2CC3(Cl)C(Cl)=C(Cl)C2(Cl)C3(Cl)Cl)c(=O)n(CC2CC3(Cl)C(Cl)=C(Cl)C2(Cl)C3(Cl)Cl)c(=O)n1CC1CC2(Cl)C(Cl)=C(Cl)C1(Cl)C2(Cl)Cl (centres undefined) .
97 % of control

Name the recorded T/C for CCCCC/C=C/C/C=C\CCCCCCCC(=O)NC(Cc1ccc(C)cc1)c1ccccc1 (centres undefined) .
100 % of control

Now for another entry.
Name the recorded T/C for O=C(NC(CSSCC(NC(=O)c1ccccc1)C(=O)O)C(=O)O)c1ccccc1 (centres undefined) .
101 % of control
